Assay: 7-day repeated-dose PK in rats
Format: in vivo, Sprague Dawley rats
Conditions: male, Sprague Dawley (Crl: CD (SD)), rat, plasma, po, 10 mg/kg/day, day 7, PO 10 mg/kg/day, M
Procedure: Groups of Sprague Dawley rats (n = 5/sex/group; n = 3/sex/TK group) were orally administered ZB716 (20% PG, 5% Solutol, and 75% of 40% HP-β-CD in DI water) at dose levels of 10, 100, and 400 mg/kg/day for 7 days. […] Systemic exposure, expressed as Cmax and AUClast values, increased with dose in a less than dose-proportional manner on days 1 and 7 (Figure 2). […]
measuredMetric: AUC(0-t) (ng·h/mL)
Numbers only, in ng·h/mL.

// lookup AUC(0-t) for C[C@]12CC[C@@H]3c4ccc(B(O)O)cc4C[C@@H](CCCCCCCCC[S+]([O-])CCCC(F)(F)C(F)(F)F)[C@H]3[C@@H]1CC[C@@H]2O (stereo partly shown)
2260

---

biological target: CYP1A2 (Homo sapiens, UniProt P05177); test: CYP phenotyping, recombinant CYP1A2; conditions: human
Sequence (P05177 whole entry): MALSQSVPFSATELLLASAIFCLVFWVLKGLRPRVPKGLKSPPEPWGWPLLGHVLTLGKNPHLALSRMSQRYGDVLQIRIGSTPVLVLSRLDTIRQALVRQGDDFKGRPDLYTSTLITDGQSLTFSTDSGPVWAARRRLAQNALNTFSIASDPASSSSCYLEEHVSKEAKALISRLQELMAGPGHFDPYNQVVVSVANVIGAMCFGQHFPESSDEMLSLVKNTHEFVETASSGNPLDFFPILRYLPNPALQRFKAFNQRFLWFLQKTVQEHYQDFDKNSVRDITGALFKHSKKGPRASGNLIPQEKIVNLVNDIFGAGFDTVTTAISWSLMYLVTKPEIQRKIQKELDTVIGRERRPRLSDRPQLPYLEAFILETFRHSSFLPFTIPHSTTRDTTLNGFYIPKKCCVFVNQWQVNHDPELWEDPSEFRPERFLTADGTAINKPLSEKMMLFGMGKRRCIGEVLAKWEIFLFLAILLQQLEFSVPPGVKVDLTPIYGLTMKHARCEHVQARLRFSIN
measuredMetric: half-life at 2 µM (min)
Give bare numbers, in min.

// lookup half-life at 2 µM for C[C@]12CC[C@@H]3c4ccc(B(O)O)cc4C[C@@H](CCCCCCCCC[S+]([O-])CCCC(F)(F)C(F)(F)F)[C@H]3[C@@H]1CC[C@@H]2O (stereo partly shown)
16.2

---

experiment: Plasma protein binding by equilibrium dialysis, rat; assay type: in vitro ADME; conditions: plasma (EDTA-K2 as anticoagulant), pH 7.4, 10 μM
measuredMetric: recovery at 6 h, 10 μM

// lookup recovery at 6 h, 10 μM for C[C@]12CC[C@@H]3c4ccc(B(O)O)cc4C[C@@H](CCCCCCCCC[S+]([O-])CCCC(F)(F)C(F)(F)F)[C@H]3[C@@H]1CC[C@@H]2O (stereo partly shown) [ZB716, fulvestrant-3-boronic acid]
< 82.1%

---

test: Metabolic stability in dog hepatocytes; format: in vitro ADME; settings: read-out: Scaled-Up Clint
measuredMetric: CLint scaled at 1 μM
Number first, unit second: that is the form wanted.

// lookup CLint scaled at 1 μM for C[C@]12CC[C@@H]3c4ccc(B(O)O)cc4C[C@@H](CCCCCCCCC[S+]([O-])CCCC(F)(F)C(F)(F)F)[C@H]3[C@@H]1CC[C@@H]2O (stereo partly shown)
357 mL/min/kg

---

test: Single-dose PK and bioavailability in dogs; type: in vivo; settings: female, beagle, dog, plasma; single dose, IV 2 mg/kg/day, F
measuredMetric: AUC(0-t) (ng·h/mL)
Numbers only, in ng·h/mL.

// lookup AUC(0-t) for C[C@]12CC[C@@H]3c4ccc(B(O)O)cc4C[C@@H](CCCCCCCCC[S+]([O-])CCCC(F)(F)C(F)(F)F)[C@H]3[C@@H]1CC[C@@H]2O (stereo partly shown)
4310

---

Assay: 4-week repeat-dose toxicity/TK study in rats
Format: in vivo, Sprague Dawley rats
Settings: female, Sprague Dawley (Crl: CD (SD)), rat, plasma, po, 25 mg/kg/day, day 1, PO 25 mg/kg/day, Female
Procedure: The PK of ZB716 was investigated in a 4-week repeat-dose toxicity study in rats. […] The plasma concentration of ZB716 was measured at various times through to 24 h post-dose on days 1 and 28. […] Five microliters of diluted supernatant was injected into the LC–MS/MS system (Shimadzu LC30AD HPLC system with a SynergiTM 4 μm Fusion-RP 80 Å (50 × 2 mm) column using gradient elution and a Triple Quad 5500 mass spectrometer) for quantitative analysis. […]
measuredMetric: AUC(0-t) (ng·h/mL)
One number for each entry, in ng·h/mL.

// lookup AUC(0-t) for C[C@]12CC[C@@H]3c4ccc(B(O)O)cc4C[C@@H](CCCCCCCCC[S+]([O-])CCCC(F)(F)C(F)(F)F)[C@H]3[C@@H]1CC[C@@H]2O (stereo partly shown) [ZB716, fulvestrant-3-boronic acid]
7700

---

test: 7-day repeated-dose PK in rats; assay type: in vivo, Sprague Dawley rats; conditions: female, Sprague Dawley, rat, plasma, po, 10 mg/kg/day, day 1, PO 10 mg/kg/day, F; read-out: Tmax (median)
measuredMetric: Tmax (min)
One number for each entry, in min.

// lookup Tmax for C[C@]12CC[C@@H]3c4ccc(B(O)O)cc4C[C@@H](CCCCCCCCC[S+]([O-])CCCC(F)(F)C(F)(F)F)[C@H]3[C@@H]1CC[C@@H]2O (stereo partly shown)
30

---

assay: Plasma protein binding by equilibrium dialysis, dog; type: in vitro ADME; conditions: plasma (EDTA-K2 as anticoagulant), pH 7.4, 10 μM
measuredMetric: recovery at 6 h, 10 μM

// lookup recovery at 6 h, 10 μM for C[C@]12CC[C@@H]3c4ccc(B(O)O)cc4C[C@@H](CCCCCCCCC[S+]([O-])CCCC(F)(F)C(F)(F)F)[C@H]3[C@@H]1CC[C@@H]2O (stereo partly shown) [ZB716, fulvestrant-3-boronic acid]
< 68.7%

---

assay: 7-day repeated-dose PK in rats; type: in vivo, Sprague Dawley rats; conditions: both sexes, Sprague Dawley, rat, plasma, oral, 100 mg/kg/day, 10 and 100 mg/kg/day, day 1 and day 7, mostly; read-out: Tmax
measuredMetric: Tmax

// lookup Tmax for C[C@]12CC[C@@H]3c4ccc(B(O)O)cc4C[C@@H](CCCCCCCCC[S+]([O-])CCCC(F)(F)C(F)(F)F)[C@H]3[C@@H]1CC[C@@H]2O (stereo partly shown)
30 to 60 min

---

test: Plasma protein binding by equilibrium dialysis, monkey; type: in vitro ADME; conditions: plasma (EDTA-K2 as anticoagulant), pH 7.4, 1 μM
measuredMetric: recovery at 6 h, 1 μM

// lookup recovery at 6 h, 1 μM for C[C@]12CC[C@@H]3c4ccc(B(O)O)cc4C[C@@H](CCCCCCCCC[S+]([O-])CCCC(F)(F)C(F)(F)F)[C@H]3[C@@H]1CC[C@@H]2O (stereo partly shown)
< 70%

---

experiment: 7-day repeated-dose PK in rats; format: in vivo, Sprague Dawley rats; conditions: female, Sprague Dawley, rat, plasma, po, 100 mg/kg/day, day 7, PO 100 mg/kg/day, F
measuredMetric: Cmax (ng/mL)
Numbers only, in ng/mL.

// lookup Cmax for C[C@]12CC[C@@H]3c4ccc(B(O)O)cc4C[C@@H](CCCCCCCCC[S+]([O-])CCCC(F)(F)C(F)(F)F)[C@H]3[C@@H]1CC[C@@H]2O (stereo partly shown)
2750

---

test: 4-week repeat-dose toxicity/TK study in dogs; assay type: in vivo, beagle dogs; details: female, beagle, dog, plasma, po, 100 mg/kg/day, day 1, PO 100 mg/kg/day, F
measuredMetric: Tmax (h)
Give bare numbers, in h.

// lookup Tmax for C[C@]12CC[C@@H]3c4ccc(B(O)O)cc4C[C@@H](CCCCCCCCC[S+]([O-])CCCC(F)(F)C(F)(F)F)[C@H]3[C@@H]1CC[C@@H]2O (stereo partly shown)
1

---

test: Single-dose PK and bioavailability of ZB716 in rats; format: in vivo; conditions: male, Sprague Dawley, rat, plasma; single dose, PO 100 mg/kg/day, M
measuredMetric: Cmax (ng/mL)
Give bare numbers, in ng/mL.

// lookup Cmax for C[C@]12CC[C@@H]3c4ccc(B(O)O)cc4C[C@@H](CCCCCCCCC[S+]([O-])CCCC(F)(F)C(F)(F)F)[C@H]3[C@@H]1CC[C@@H]2O (stereo partly shown) [ZB716, fulvestrant-3-boronic acid]
3010

---

experiment: 7-day repeated-dose TK in dogs; format: in vivo; details: female, beagle, dog, plasma, po, 200 mg/kg/day, day 7, PO 200 mg/kg/day, F
measuredMetric: Cmax (ng/mL)
Give bare numbers, in ng/mL.

// lookup Cmax for C[C@]12CC[C@@H]3c4ccc(B(O)O)cc4C[C@@H](CCCCCCCCC[S+]([O-])CCCC(F)(F)C(F)(F)F)[C@H]3[C@@H]1CC[C@@H]2O (stereo partly shown)
8420

---

experiment: 4-week repeat-dose toxicity/TK study in rats; format: in vivo, Sprague Dawley rats; details: female, Sprague Dawley (Crl: CD (SD)), rat, plasma, po, 25 mg/kg/day, day 28, PO 25 mg/kg/day, Female
measuredMetric: Cmax (ng/mL)
Answers are plain numbers, in ng/mL.

// lookup Cmax for C[C@]12CC[C@@H]3c4ccc(B(O)O)cc4C[C@@H](CCCCCCCCC[S+]([O-])CCCC(F)(F)C(F)(F)F)[C@H]3[C@@H]1CC[C@@H]2O (stereo partly shown)
1770

---

target: CYP3A4 (Homo sapiens); assay: CYP phenotyping, recombinant CYP3A4; details: human
Sequence (P08684 whole entry): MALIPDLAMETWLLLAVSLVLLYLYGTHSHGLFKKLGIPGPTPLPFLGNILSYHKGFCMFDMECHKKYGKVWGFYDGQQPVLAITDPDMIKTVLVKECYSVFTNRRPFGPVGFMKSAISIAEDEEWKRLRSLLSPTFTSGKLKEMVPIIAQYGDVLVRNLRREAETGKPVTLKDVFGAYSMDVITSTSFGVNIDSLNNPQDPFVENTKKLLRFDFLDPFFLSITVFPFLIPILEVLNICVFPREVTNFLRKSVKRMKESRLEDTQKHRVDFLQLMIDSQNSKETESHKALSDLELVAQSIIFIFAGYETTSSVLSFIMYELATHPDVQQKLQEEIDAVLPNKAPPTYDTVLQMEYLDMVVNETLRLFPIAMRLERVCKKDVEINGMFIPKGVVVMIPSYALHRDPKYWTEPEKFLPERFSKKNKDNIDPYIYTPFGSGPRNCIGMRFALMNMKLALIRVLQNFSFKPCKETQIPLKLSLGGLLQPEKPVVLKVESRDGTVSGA
measuredMetric: half-life at 2 µM (min)
Numbers only, in min.

// lookup half-life at 2 µM for C[C@]12CC[C@@H]3c4ccc(B(O)O)cc4C[C@@H](CCCCCCCCC[S+]([O-])CCCC(F)(F)C(F)(F)F)[C@H]3[C@@H]1CC[C@@H]2O (stereo partly shown) [ZB716, fulvestrant-3-boronic acid]
5.91
